- Test system: Streptococcus pyogenes SSI-9
- EXPERIMENTAL_DETAILS: Antibacterial activity assay of bead-derived peptides (three concentrations)
- Assay type: cell-based
- Design: key: +++: inhibition by the 640-fold diluted peptide solution; ++: inhibition by the 160-fold diluted solution; +: inhibition by the 40-fold diluted solution; -: no inhibition
- ASSAY_CONTEXT: S. pyogenes, bead-derived peptide solution, three concentrations
Where a SMILES comes first, the peptide text is derived from it. [ ]: non-standard residue; d: D form. The star is where a group is joined. NHCH2CH2OH = OCCN*; For = O=C*

- COMPOUND: "CC(C)C[C@@H](NC(=O)[C@H](C)NC(=O)CNC(=O)[C@@H](NC=O)C(C)C)C(=O)N[C@@H](C)C(=O)N[C@@H](C(=O)N[C@H](C(=O)N[C@H](CC(C)C)C(=O)N[C@@H](Cc1c[nH]c2ccccc12)C(=O)N[C@H](CC(C)C)C(=O)N[C@@H](Cc1c[nH]c2ccccc12)C(=O)N[C@@H](C(=O)N[C@@H](Cc1c[nH]c2ccccc12)C(=O)N[C@H](CC(C)C)C(=O)N[C@@H](Cc1c[nH]c2ccccc12)C(=O)NCCO)[C@H](C)O)C(C)C)C(C)C [compound 4128] (For-VGA[dL]A[dV]V[dL]W[dL]W[dT]W[dL]W-NHCH2CH2OH)"
  antibacterial activity: "+"

---

- Tested on: Streptococcus pyogenes SSI-9
- EXPERIMENTAL_DETAILS: Antibacterial activity assay of bead-derived peptides (three concentrations)
- Type: cell-based
- Parameters: key: +++: inhibition by the 640-fold diluted peptide solution; ++: inhibition by the 160-fold diluted solution; +: inhibition by the 40-fold diluted solution; -: no inhibition
- ASSAY_CONTEXT: S. pyogenes, bead-derived peptide solution, three concentrations
Where a SMILES comes first, the peptide text is derived from it. [ ]: non-standard residue; d: D form. The star is where a group is joined. NHCH2CH2OH = OCCN*; For = O=C*

- COMPOUND: "CNC(=O)C[C@@H](NC(=O)[C@H](C)NC(=O)[C@@H](CC(C)C)NC(=O)[C@H](C)NC(=O)CNC(=O)[C@@H](NC=O)C(C)C)C(=O)N[C@H](C(=O)N[C@@H](C(=O)N[C@@H](Cc1c[nH]c2ccccc12)C(=O)N[C@H](CC(C)C)C(=O)N[C@@H](Cc1c[nH]c2ccccc12)C(=O)N[C@@H](C(=O)N[C@@H](Cc1c[nH]c2ccccc12)C(=O)N[C@H](CC(C)C)C(=O)N[C@@H](Cc1c[nH]c2ccccc12)C(=O)NCCO)C(C)C)C(C)C)C(C)C [compound 9352] (For-VGA[dL]A[dD](NHMe)V[dV]W[dL]W[dV]W[dL]W-NHCH2CH2OH)"
  antibacterial activity: "-"
- COMPOUND: "CC(C)C[C@@H](NC(=O)[C@H](Cc1c[nH]c2ccccc12)NC(=O)[C@H](NC(=O)[C@H](Cc1c[nH]c2ccccc12)NC(=O)[C@H](NC(=O)[C@H](Cc1c[nH]c2ccccc12)NC(=O)[C@@H](CC(C)C)NC(=O)[C@@H](NC(=O)[C@H](NC(=O)[C@H](C)NC(=O)[C@H](NC(=O)[C@H](C)NC(=O)CNC(=O)[C@@H](NC=O)C(C)C)C(C)C)C(C)C)C(C)C)C(C)C)C(C)C)C(=O)N[C@@H](Cc1c[nH]c2ccccc12)C(=O)NCCO [compound 3111] (For-VGA[dV]A[dV]V[dL]W[dV]W[dV]W[dL]W-NHCH2CH2OH)"
  antibacterial activity: "-"
- COMPOUND: "CC(C)[C@H](NC=O)C(=O)NCC(=O)N[C@@H](C)C(=O)N[C@@H](C(=O)N[C@@H](C)C(=O)N[C@@H](C(=O)N[C@H](C(=O)N[C@@H](C(=O)N[C@@H](Cc1c[nH]c2ccccc12)C(=O)N[C@@H](C(=O)N[C@@H](Cc1c[nH]c2ccccc12)C(=O)N[C@@H](C(=O)N[C@@H](Cc1c[nH]c2ccccc12)C(=O)N[C@@H](C(=O)N[C@@H](Cc1c[nH]c2ccccc12)C(=O)NCCO)C(C)C)C(C)C)C(C)C)C(C)C)C(C)C)C(C)C)[C@H](C)O [compound 11453] (For-VGA[dT]A[dV]V[dV]W[dV]W[dV]W[dV]W-NHCH2CH2OH)"
  antibacterial activity: "-"
- COMPOUND: "CC(C)C[C@@H](NC(=O)[C@@H](NC(=O)[C@H](NC(=O)[C@H](C)NC(=O)[C@H](NC(=O)[C@H](C)NC(=O)CNC(=O)[C@@H](NC=O)C(C)C)C(C)C)C(C)C)C(C)C)C(=O)N[C@@H](Cc1c[nH]c2ccccc12)C(=O)N[C@@H](C(=O)N[C@@H](Cc1c[nH]c2ccccc12)C(=O)N[C@@H](C(=O)N[C@@H](Cc1c[nH]c2ccccc12)C(=O)N[C@@H](C(=O)N[C@@H](Cc1c[nH]c2ccccc12)C(=O)NCCO)[C@H](C)O)C(C)C)C(C)C [compound 6781] (For-VGA[dV]A[dV]V[dL]W[dV]W[dV]W[dT]W-NHCH2CH2OH)"
  antibacterial activity: "+"

---

- ASSAY_CONTEXT: Cytotoxicity IC50
Where a SMILES comes first, the peptide text is derived from it. [ ]: non-standard residue; d: D form. The star is where a group is joined. NHCH2CH2OH = OCCN*; For = O=C*
REPORTED_PROPERTY: IC50 (nM)
Record the value in nM, omitting the unit from your answer.

### Prompt Supply reported IC50 belonging to this compound: CC(C)C[C@@H](NC(=O)[C@H](C)NC(=O)CNC(=O)[C@@H](NC=O)C(C)C)C(=O)N[C@@H](C)C(=O)N[C@@H](C(=O)N[C@H](C(=O)N[C@@H](C(=O)N[C@@H](Cc1c[nH]c2ccccc12)C(=O)N[C@H](CC(C)C)C(=O)N[C@@H](Cc1c[nH]c2ccccc12)C(=O)N[C@H](CC(C)C)C(=O)N[C@@H](Cc1c[nH]c2ccccc12)C(=O)N[C@@H](C(=O)N[C@@H](Cc1c[nH]c2ccccc12)C(=O)NCCO)C(C)C)[C@H](C)O)C(C)C)C(C)C [B12] (For-VGA[dL]A[dV]V[dT]W[dL]W[dL]W[dV]W-NHCH2CH2OH)
### Response 390

---

Can you tell me cell viability/% for the items I'm about to list?
- Test system: P388 mouse leukemia cells
- ASSAY_CONTEXT: 92 h
Where a SMILES comes first, the peptide text is derived from it. [ ]: non-standard residue; d: D form. The star is where a group is joined. NHCH2CH2OH = OCCN*; For = O=C*
Record the value in %, omitting the unit from your answer.

### Prompt Supply reported cell viability/% belonging to this compound: CC(C)C[C@@H](NC(=O)[C@H](Cc1c[nH]c2ccccc12)NC(=O)[C@H](NC(=O)[C@H](Cc1c[nH]c2ccccc12)NC(=O)[C@@H](CC(C)C)NC(=O)[C@@H](NC(=O)[C@H](NC(=O)[C@H](C)NC(=O)[C@H](NC(=O)[C@H](C)NC(=O)CNC(=O)[C@@H](NC=O)C(C)C)C(C)C)C(C)C)C(C)C)C(C)C)C(=O)N[C@@H](Cc1c[nH]c2ccccc12)C(=O)N[C@@H](C(=O)N[C@@H](Cc1c[nH]c2ccccc12)C(=O)NCCO)C(C)C [compound 2120] (For-VGA[dV]A[dV]V[dL]W[dV]W[dL]W[dV]W-NHCH2CH2OH)
### Response 17.0

### Prompt Supply reported cell viability/% belonging to this compound: CNC(=O)C[C@@H](NC(=O)[C@H](Cc1c[nH]c2ccccc12)NC(=O)[C@H](NC(=O)[C@H](Cc1c[nH]c2ccccc12)NC(=O)[C@H](NC(=O)[C@H](Cc1c[nH]c2ccccc12)NC(=O)[C@@H](CC(C)C)NC(=O)[C@@H](NC(=O)[C@H](NC(=O)[C@H](C)NC(=O)[C@@H](CC(C)C)NC(=O)[C@H](C)NC(=O)CNC(=O)[C@@H](NC=O)C(C)C)C(C)C)C(C)C)C(C)C)C(C)C)C(=O)N[C@@H](Cc1c[nH]c2ccccc12)C(=O)NCCO [compound 6808] (For-VGA[dL]A[dV]V[dL]W[dV]W[dV]W[dD](NHMe)W-NHCH2CH2OH)
### Response 100.0
